testedSystem: Human immunodeficiency virus type 1 reverse transcriptase (Human immunodeficiency virus 1)
pIC50: −log10 of the molar value.
The reader will find reported pIC50 values listed item by item below.

{"columns": ["compound", "censoringSign", "pIC50"],
 "data": [
  ["CC(C)(C)c1ccc(CSc2nc(Cc3ccccc3)c(I)c(=O)[nH]2)cc1", "=", 5.25],
  ["CCOCSc1nc(Cc2ccccc2)cc(=O)[nH]1", "<", 4.00],
  ["Cc1cccc(CSc2nc(Cc3ccccc3)c(I)c(=O)[nH]2)c1", "=", 5.52],
  ["Cc1c(Cc2ccccc2)nc(SC(C)c2ccccc2)[nH]c1=O (stereo unspecified)", "<", 4.00],
  ["O=c1[nH]c(SCCc2ccccc2)nc(Cc2ccccc2)c1Br", "=", 4.86],
  ["O=c1cc(Cc2ccccc2)nc(SCCCc2ccccc2)[nH]1", "=", 5.09],
  ["O=c1[nH]c(SCc2ccccc2)nc(Cc2ccccc2)c1I", "=", 4.99],
  ["O=c1[nH]c(SCCc2ccccc2)nc(Cc2ccccc2)c1I", "=", 5.62],
  ["Cc1ccccc1CSc1nc(Cc2ccccc2)c(Br)c(=O)[nH]1", "=", 4.60],
  ["Cc1c(Cc2ccccc2)nc(SCCc2ccccc2)[nH]c1=O", "=", 4.22],
  ["Cc1cccc(CSc2nc(Cc3ccccc3)c(Br)c(=O)[nH]2)c1", "=", 4.57]
]}
